# TESTED TARGET: human GCG receptor (human, UniProt P47871 26-477)
# Sequence (P47871 26-477): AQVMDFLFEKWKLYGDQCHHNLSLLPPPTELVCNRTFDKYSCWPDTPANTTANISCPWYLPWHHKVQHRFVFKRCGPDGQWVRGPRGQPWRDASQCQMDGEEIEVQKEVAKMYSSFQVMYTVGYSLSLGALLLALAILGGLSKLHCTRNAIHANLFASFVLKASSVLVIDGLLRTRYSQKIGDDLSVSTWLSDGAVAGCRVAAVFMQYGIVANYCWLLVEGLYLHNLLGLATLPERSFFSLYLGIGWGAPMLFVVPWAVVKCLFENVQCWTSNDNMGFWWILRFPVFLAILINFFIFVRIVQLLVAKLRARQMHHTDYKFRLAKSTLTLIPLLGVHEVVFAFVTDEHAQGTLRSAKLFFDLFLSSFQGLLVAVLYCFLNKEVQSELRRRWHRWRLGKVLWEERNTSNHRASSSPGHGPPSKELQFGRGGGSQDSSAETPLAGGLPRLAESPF
# EXPERIMENT DESCRIPTION: cell-based or functional assay
Positions of bridges follow the written chain, without caps; N, C: chain ends. Non-standard residues stand in square brackets, D forms with d. No end group written: not given here. Aib = CC(C)(N)C(=O)O
OBSERVED PROPERTY: In vitro activity relative to native peptide (%), vs. Glucagon (cAMP EC50)
Numbers only, in %.

Here are 3 binders together with their reported answers.
>  <BINDER>
H[Aib]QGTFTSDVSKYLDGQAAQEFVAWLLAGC [trigonal agonist of SEQ ID NO: 9]

>  <UNIT DESCRIPTOR>
%

>  <ASSAY VALUE>
0.13

$$$$
>  <BINDER>
Y[Aib]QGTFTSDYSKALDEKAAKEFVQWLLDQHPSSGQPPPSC (bridge 16-20) [trigonal agonist of SEQ ID NO: 100]

>  <UNIT DESCRIPTOR>
%

>  <ASSAY VALUE>
12.7

$$$$
>  <BINDER>
Y[Aib]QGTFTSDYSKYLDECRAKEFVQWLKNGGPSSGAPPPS (bridge 16-20) [trigonal agonist of SEQ ID NO: 24]

>  <UNIT DESCRIPTOR>
%

>  <ASSAY VALUE>
9.3

$$$$

Now let's try a different one.
Data request: Give recorded In vitro activity relative to native peptide (%), vs. Glucagon (cAMP EC50). Y[Aib]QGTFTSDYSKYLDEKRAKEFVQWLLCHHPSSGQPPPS (bridge 16-20) [trigonal agonist of SEQ ID NO: 95]
Data returned: 0.4
